Reference source for all entries: paper PMC7645381

I'd appreciate it if you could supply EC50 values for the items below.
# System: P. falciparum D10
# EXPERIMENT_SUMMARY: P. falciparum D10 growth inhibition by flow cytometry
# Format: cell-based
# PROTOCOL_CONDITIONS: Plasmodium falciparum, D10; growth inhibition by flow cytometry, 12-point dilution series, 72 h
Answers are plain numbers, in µM.

compound="O=C(Nc1cccc2c(=O)cc(-c3nnn[nH]3)oc12)c1ccc(OCCCCc2ccccc2)cc1 [pranlukast]" assay_result=28
compound="O=C(Nc1cccc2c(=O)cc(C(=O)O)oc12)c1ccc(OCCCCc2ccccc2)cc1 [Compound 18]" assay_result=42
compound="O=C(Nc1cccc2c(=O)cc(C(=O)O)oc12)c1ccc(OCCCc2ccccc2)cc1 [Compound 17]" assay_result=19
compound="CCC(CC)(CC(=O)Nc1cccc(/C=C/c2nc(C3CCC3)cs2)c1)C(=O)O [cinalukast, reference compound]" assay_result=32
compound="O=C(O)c1ccccc1Nc1cccc(OCc2ccc3ccccc3n2)c1 [SR2540, reference compound]" assay_result=6.1

Attention now turns to another entry.
Look at this compound and give its reported EC50. O=C(Nc1cccc2c(=O)cc(C(=O)O)oc12)c1ccc(OCCc2ccccc2)cc1 [Compound 16]
6.7
